Quick record: pKi, Histamine H3 receptor (Homo sapiens, UniProt Q9Y5N1).
Answers are plain numbers, as −log10 of the molar value.

Some entries whose results are on file:
[[record]]
molecule = "CC(C)n1nc(-c2ccc(OCCCN3CCC[C@H]3C)cc2)ccc1=O"
measurement = 8.32

[[record]]
molecule = "C[C@@H]1CCCN1CCCOc1ccc(-c2cn[nH]c(=O)c2)cc1"
measurement = 8.55

[[record]]
molecule = "C[C@@H]1CCCN1CCCOc1ccc(-n2ncccc2=O)cc1"
measurement = 7.09


Test item C[C@@H]1CCCN1CCCOc1ccc(-c2ccc(=O)[nH]n2)cc1 [IRDABISANT] ; Histamine H3 receptor (Homo sapiens, UniProt Q9Y5N1); reported pKi was 8.70
